# System: ST486 (Burkitt's Lymphoma)
# Assay method text: combination Emax (second highest fraction inhibited in the dose matrix, 72 h); higher = more inhibition; extreme values may be limits of the assay
Reported combination Emax values follow for various compounds
Assay endpoint: combination Emax

Compound	System name	Numeric result
Cc1c2c(nn1C)CSCc1cc(n(C)n1)CSc1cc(c3ccccc3c1)OCCCc1c(C(=O)O)n(C)c3c-2c(Cl)ccc13 [AZD5991] + Cc1cc2ncnn2cc1Nc1ncc2c(n1)n(C1CCOCC1)c(=O)n2C [AZD7648] (first compound max 1 µM, 7x7, partner max 10 µM)	ST486 (Burkitt's Lymphoma)	0.841
C[C@@H](Oc1cc(-c2cnn(C3CCNCC3)c2)cnc1N)c1c(Cl)ccc(F)c1Cl [Crizotinib] + CC1=C(C(=CC=C1)Cl)NC(=O)C2=CN=C(S2)NC3=CC(=NC(=N3)C)N4CCN(CC4)CCO [Dasatinib] (first compound max 10 µM, 7x7, partner max 2 µM)	ST486 (Burkitt's Lymphoma)	0.95
COc1cccc(OCCCN)c1-c1cc(Nc2cnc(C#N)cn2)n[nH]1 [Prexasertib] + CN(C)CCCOc1ccc(-c2ccc3ncc4c(c3c2)n(C2CCOCC2)c(=O)n4C)cn1 [AZD0156] (first compound max 1 µM, 7x7, partner max 1 µM)	ST486 (Burkitt's Lymphoma)	0.991
O=C(c1cc(Cc2n[nH]c(=O)c3ccccc23)ccc1F)N1CCN(C(=O)C2CC2)CC1 [Olaparib] + Cc1c2c(nn1C)CSCc1cc(n(C)n1)CSc1cc(c3ccccc3c1)OCCCc1c(C(=O)O)n(C)c3c-2c(Cl)ccc13 [AZD5991] (first compound max 10 µM, 7x7, partner max 1 µM)	ST486 (Burkitt's Lymphoma)	0.558

----------
# Lookup of reported Bliss excess keyed by entry
# Tested on: NCI-H520 (Squamous Cell Lung Carcinoma)
# Assay method text: Bliss excess, mean over the matrix (fraction); higher = more synergy
Assay endpoint: Bliss excess

Molecule	Assay endpoint	Numeric result
Cc1cc2ncnn2cc1Nc1ncc2c(n1)n(C1CCOCC1)c(=O)n2C [AZD7648] + O=C(c1cc(Cc2n[nH]c(=O)c3ccccc23)ccc1F)N1CCN(C(=O)C2CC2)CC1 [Olaparib] (first compound max 10 µM, 7x7, partner max 10 µM)	Bliss excess	-0.0742
CCN(CCO)CCCOc1ccc2c(Nc3cc(CC(=O)Nc4cccc(F)c4)[nH]n3)ncnc2c1 [AZD2811] + C[C@@H]1COCCN1C2=NC(=NC(=C2)C3(CC3)[S@](=N)(=O)C)C4=C5C=CNC5=NC=C4 [AZD6738] (first compound max 1 µM, 7x7, partner max 10 µM)	Bliss excess	-0.0834
Cc1nc(-c2cn3c(n2)-c2ccc(-c4cnn(C(C)(C)C(N)=O)c4)cc2OCC3)n(C(C)C)n1 [Taselisib] + O=C(Nc1ccc2[nH]nc(-c3ccncc3)c2c1)[C@@H]1CCN(CC(=O)N2CCN(c3ccc(-c4ncccn4)cc3)CC2)C1 [SCH772984] (first compound max 10 µM, 7x7, partner max 5 µM)	Bliss excess	0.0461
Cn1cnc2c(F)c(Nc3ccc(Br)cc3Cl)c(C(=O)NOCCO)cc21 [Selumetinib] + CC(C)n1c(=O)n(C)c2cnc3cc(F)c(-c4ccc(OCCCN5CCCCC5)nc4)cc3c21 [AZD1390] (first compound max 10 µM, 7x7, partner max 0.3 µM)	Bliss excess	-0.0486

----------
# Tested on: COR-L279 (Small Cell Lung Carcinoma)
# Assay method text: Bliss excess, mean over the matrix (fraction); higher = more synergy
Label True for high-side Bliss excess (at or above 0.03) and False for low-side Bliss excess (below it).

Compound	Label
CC(=O)c1c(C)c2cnc(Nc3ccc(N4CCNCC4)cn3)nc2n(C2CCCC2)c1=O [Palbociclib] + Cn1cnc2c(F)c(Nc3ccc(Br)cc3Cl)c(C(=O)NOCCO)cc21 [Selumetinib] (first compound max 10 µM, 7x7, partner max 10 µM)	False
CC1(C)CCC(CN2CCN(c3ccc(C(=O)NS(=O)(=O)c4ccc(NCC5CCOCC5)c([N+](=O)[O-])c4)c(Oc4cnc5[nH]ccc5c4)c3)CC2)=C(c2ccc(Cl)cc2)C1 [Venetoclax] + COc1cc(Nc2ncc3c(n2)-c2ccc(Cl)cc2C(c2c(F)cccc2OC)=NC3)ccc1C(=O)O [Alisertib] (first compound max 1 µM, 7x7, partner max 10 µM)	True
N#Cc1cnc(Nc2cc(NC[C@H]3CNCCO3)c(C(F)(F)F)cn2)cn1 [SRA737] + CCc1c2c(nc3ccc(O)cc13)-c1cc3c(c(=O)n1C2)COC(=O)[C@]3(O)CC [SN-38] (first compound max 10 µM, 7x7, partner max 0.3 µM)	False
COc1nnc2ccc(N3CCC(c4ccc(OCCN5CCN(C)C(=O)[C@H]5C)cc4)CC3)nn12 [AZD5153] + Cn1cnc2c(F)c(Nc3ccc(Br)cc3Cl)c(C(=O)NOCCO)cc21 [Selumetinib] (first compound max 1 µM, 7x7, partner max 10 µM)	False
CC(=O)c1c(C)c2cnc(Nc3ccc(N4CCNCC4)cn3)nc2n(C2CCCC2)c1=O [Palbociclib] + Cc1c2c(nn1C)CSCc1cc(n(C)n1)CSc1cc(c3ccccc3c1)OCCCc1c(C(=O)O)n(C)c3c-2c(Cl)ccc13 [AZD5991] (first compound max 10 µM, 7x7, partner max 1 µM)	False
C[C@@H](Nc1cc(F)cc(F)c1)c1cc(C(=O)N(C)C)cc2c(=O)cc(N3CCOCC3)oc12 [AZD8186] + C1CN(CCC1(C(=O)N[C@@H](CCO)C2=CC=C(C=C2)Cl)N)C3=NC=NC4=C3C=CN4 [AZD5363] (first compound max 10 µM, 7x7, partner max 10 µM)	True
